melting point by entry:

{"MOLECULE": "CC1(CN2CCN(C(=O)OCc3ccc(C(=O)c4ccccc4)cc3)CC2)Cn2cc([N+](=O)[O-])nc2O1 (stereo not shown)", "melting point": "105 to 107 °C"}
{"MOLECULE": "C[C@]1(CN2CCC(N3CCCCC3)CC2)Cn2cc([N+](=O)[O-])nc2O1", "melting point": "163.4 to 164.9 °C"}
{"MOLECULE": "C[C@@]1(CN2CCN(C(=O)OCc3ccc(F)cc3)CC2)Cn2cc([N+](=O)[O-])nc2O1", "melting point": "167 to 169 °C"}
{"MOLECULE": "C[C@]1(CN2CCN(C3CCN(C(=O)OCc4ccc(OC(F)(F)F)cc4)CC3)CC2)Cn2cc([N+](=O)[O-])nc2O1", "melting point": "105 to 106 °C"}
